system: Cyperus iria; assay: Preemergence weed control under flooded paddy conditions, CYPIR (Rice Flatsedge); format: in vivo; settings: 0.1250 kg/ha; preemergence, flooded paddy; rated three to four weeks after treatment; further: meaning of each grade not given here
herbicidal effect rating, CYPIR for assorted molecules

molecule: CSCc1nsc2ccc(-n3c(=O)cc(C(F)(F)F)n(C)c3=O)cc12 [Example 21]
herbicidal effect rating, CYPIR: 0.5
//
molecule: CCc1ccc(OC(C)C(=O)OC)c(-c2nsc3ccc(-n4c(=O)cc(C(F)(F)F)n(C)c4=O)cc23)c1 (stereo not drawn) [Example 28]
herbicidal effect rating, CYPIR: 6.0
//
molecule: CCc1ccc(OC)c(-c2nsc3ccc(-n4c(=O)cc(C(F)(F)F)n(C)c4=O)cc23)c1 [Example 45]
herbicidal effect rating, CYPIR: 9.0
